system: CEM cells HIV-1 protection, formazan growth assay; assay: NCI AIDS Antiviral Assay; details: measured here: growth of uninfected CEM cells
quantity: IC50

Some solved cases for reference:
1) COc1ccc(C2=C(OC(=O)N(C)C)c3cccn3-c3cc(C(F)(F)F)ccc3S2)cc1 :: > 200 µM
2) Nc1ncnc2nc(C(O)C(O)C(O)CO)[nH]c12 (centres undefined) :: > 102 µM

Which IC50 is reported for this molecule? Cc1ccc(-n2[nH]nc(C#N)c2=O)cc1
> 200 µM

What value of IC50 has been reported for the following molecule? Nc1ncnc2ccc(Sc3ccc4ncnc(N)c4c3)cc12
> 100 µM

Can you look up the measured IC50 of CSc1cc(-c2ccccn2)nc(-c2ccccn2)c1.CSc1cc(-c2ccccn2)nc(-c2ccccn2)c1.[Mn+2].[O-][Cl+3]([O-])([O-])[O-] for me?
0.0631 µM

Please look up its IC50: O=C(O)c1ccc(S(=O)(=O)c2cccc([N+](=O)[O-])c2)cc1
> 200 µM

Query (molecule): C=[N+]([O-])CCC1(O)C(CO[Si](C)(C)C(C)(C)C)OC(n2ccc(=O)[nH]c2=O)C1O[Si](C)(C)C(C)(C)C (centres undefined) ; field requested: IC50
12 µM

So what's the measured IC50 for this one? CCCCN(CC)C(=O)C(=O)C1C(=O)Nc2ccccc2S1=O (centres undefined)
> 204 µM

Look up IC50: COc1ncc(/C=C2\OC(=O)c3ccccc32)c(OC)n1
> 200 µM

* * *

system: CEM cells HIV-1 protection, formazan growth assay; assay: NCI AIDS Antiviral Assay;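 active = compounds giving half or more protection of infected cells from virus-caused growth loss, again on retest; inactive = the rest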
Hi! Could you answer with just one of these? 1.0 for active, 0.0 for inactive

Study these solved cases before continuing.
1) CCOc1ccc(NC(=O)C(=O)CC(=O)c2c[n+](=O)c3cc(C)c(C)cc3n2[O-])cc1 :: 0.0
2) Cc1cc2c(cc1Cl)SSc1cc(Cl)c(C)cc1S(=O)(=O)Nc1nc(N)nn1C(O)n1nc(N)nc1NS2(=O)=O :: 0.0
3) NC(=O)Cc1ncn(-c2ccccc2)n1 :: 0.0
4) COc1ncc(/C=C2\OC(=O)c3ccccc32)c(OC)n1 :: 0.0
5) CC1=C2CC/C(C)=C/CCC3(C)OC3CC/C(C)=C/C2OC1=O (stereo not given) :: 0.0
6) COC(=O)C1=CC2CC1C(S(=O)(=O)c1ccccc1)C2S(=O)(=O)c1ccccc1 (stereo not given) :: 0.0
7) O=c1ccc(=Nc2ccc(NNc3ccccc3)cc2)c2c(=O)c3c([N+](=O)[O-])ccc(O)c3c(=O)c1=2 :: 0.0
8) CC(=O)Oc1ccc2c3c4nc5ccccc5nc4cc(OC(C)=O)c3n(C)c2c1 :: 0.0
9) CC1(C)Oc2cc3oc(C(=O)O)cc(=O)c3cc2-c2ccc(O)cc21 :: 0.0
10) COCCOC(C)C(=O)C(O)S(=O)(=O)O (stereo not given) :: 0.0

In this assay, the call recorded for CCCCCCCCCCCCCC(=O)O[C@H]1CC[C@H](NC(=O)[C@H](OC)[C@H](O)[C@@H](O)[C@H](O)/C=C/C(C)C)C(=O)NC1 was what?
0.0

Could you check what this test reported for Cc1cc(=O)oc2ccccc12 ?
0.0

Tell me the recorded outcome of this test for CC(=O)Nc1ccc(S2=Nc3ccccc3S2)cc1 (stereo not given) .
1.0

Write down the call the test reported for this compound. Item: COc1cc2nncc(SCc3ccc(Cl)cc3Cl)c2cc1OC
0.0

Look up the recorded call for O=c1[nH]c(=O)n(C2CC(O)C(COP(=O)(OCc3ccc([N+](=O)[O-])o3)N3CCCCC3)O2)cc1F (stereo not given) in this test.
0.0

Assay outcome for C=C1c2nc3ccccc3n2C=C(c2ccc(OC)cc2)N1c1ccc(OC)cc1 : what was it?
0.0

* * *

Below, each of the compounds is paired with its reported EC50 value.
test system: CEM cells HIV-1 protection, formazan growth assay; experiment: NCI AIDS Antiviral Assay

Worked examples, 2 compounds total:
1. C/C(=N\N=C(/[Se])N1CCCCCC1)c1ccccn1 :: > 81.3 µM
2. CCOc1ccc(N=Nc2ccc3oc(=O)c(/C(C)=N/NC(=O)CC(=O)Nc4cccc(OC)c4)cc3c2)cc1 :: > 13.2 µM

Below: the item to evaluate.
Field: EC50 (CEM cells HIV-1 protection, formazan growth assay). Entry: OCCCSc1ccccc1SCCCO
> 52.5 µM

* * *

system: CEM cells HIV-1 protection, formazan growth assay; experiment: NCI AIDS Antiviral Assay
pEC50: −log10 of the molar value.
quantity: pEC50

Param readout = pEC50; param system = CEM cells HIV-1 protection, formazan growth assay; param query = COC(=O)C1=C(C(=O)OC)C2(C3C(SC)=CC(C)(C)CC3S1)N(Cc1ccccc1)CCN2Cc1ccccc1 (configuration not stated) ; response: value
< 5.04

What reported pEC50 corresponds to Cc1ccccc1CN1C2=NCCN2C(=O)C2=C1CCN(S(=O)(=O)c1ccc(Cl)c(S(N)(=O)=O)c1)C2 on CEM cells HIV-1 protection, formazan growth assay?
< 3.70

Lab note: need pEC50 for CC(C)(NC1=NCCO1)c1ccccc1 on CEM cells HIV-1 protection, formazan growth assay, anyone have it?
< 3.70

Item COc1ccc(NC(=O)C/C(C)=N\N=C(N)N)c([N+](=O)[O-])c1 with CEM cells HIV-1 protection, formazan growth assay - pEC50?
< 3.94

Which measured pEC50 belongs to CCN(CC)C(=S)[S][Bi]([S]C(=S)N(CC)CC)[S]C(=S)N(CC)CC , tested on CEM cells HIV-1 protection, formazan growth assay?
< 5.10

Notebook: pull reported pEC50 for CEM cells HIV-1 protection, formazan growth assay, entry CC(=O)c1c(O)cc(O)c(-c2c(C)cc(O)c3c2C(=O)c2cccc(O)c2C3=O)c1O
< 3.70

What pEC50 appears in the records for this molecule with CEM cells HIV-1 protection, formazan growth assay? Cc1ccccc1[P+](Cc1ccccc1)(c1ccccc1)c1ccccc1C
< 3.70

* * *

tested on: CEM cells HIV-1 protection, formazan growth assay; assay: NCI AIDS Antiviral Assay; details: measured here: growth of uninfected CEM cells
Listing: IC50 of selected compounds

Name the reported IC50 value associated with the compound O=C(O)c1cnnc2ccccc12
> 1450 µM

Need IC50 of Cc1sc2nc3n(c(=O)c2c1C)N=C(c1ccc([N+](=O)[O-])cc1)CS3 , thanks.
> 200 µM

* * *

Test system: CEM cells HIV-1 protection, formazan growth assay
Test: NCI AIDS Antiviral Assay
Settings: measured here: growth of uninfected CEM cells
Procedure: The ability of compounds to protect human CEM cells from HIV-1 infection is measured as a screen for new compounds capable of inhibiting the HIV virus. Five concentrations of drug were tested on uninfected and infected cells and cell growth was measured using a soluble formazan assay. […] Compounds that provided at least 50% protection were retested. Compounds that provided at least 50% protection on retest were listed as moderately active. […]
pIC50: −log10 of the molar value.
quantity: pIC50

Before answering, review these 4 worked examples.
1. Cc1cc(C)c(C(=O)C(C)C(c2ccccc2)c2ccc(Cl)cc2)c(C)c1 (stereo not given) :: < 4.58
2. N#Cc1nc(C2CCC(=O)O2)oc1N (stereo not given) :: < 3.70
3. COC(=O)c1ncn(C2CCCCC2)c1N :: < 3.70
4. O=C1CCC2C(O)c3cc4c(cc3C(c3ccc5c(c3)OCO5)N12)OCO4 (stereo not given) :: < 3.70

Next compound, please.
I have this compound here, Nc1ncc2ncn(C3CCC(CO)O3)c2n1 (stereo not given) , and I need its recorded pIC50.
< 3.70

* * *

Measured pIC50 of individual entries
test system: CEM cells HIV-1 protection, formazan growth assay; assay: NCI AIDS Antiviral Assay; conditions: measured here: growth of uninfected CEM cells
pIC50: −log10 of the molar value.

Below: 6 compounds and their reported pIC50.
1. O=[N+]([O-])c1ccc(-c2noc(-c3ccc(Cl)cc3)c2C2=NCCN2)cc1 :: < 4.85
2. CN(Cc1ccccc1)C(=NC#N)N(Cc1ccccc1)Cc1ccccc1 :: < 4.71
3. Nc1nc2ncn(CC(O)COC(=O)c3ccccc3)c2c(=O)[nH]1 (stereo not drawn) :: < 4.66
4. Nc1ncnc2oc(-c3ccccc3)nc12 :: < 3.71
5. O=NC1(c2ccccc2)CCCCC1[N+](=O)[O-] (stereo not drawn) :: < 3.70
6. N#C/C=C/c1ccc(Cl)cc1 :: < 3.66

What value of pIC50 has been recorded for this entry: COC(=O)C1CCC(=O)N1CN(C(C)=O)c1cc(OC)ccc1OC (stereo not drawn)
< 3.70

Can you share its pIC50? I mean this compound: O=c1[nH]cc(SSc2c[nH]c(=O)[nH]c2=O)c(=O)[nH]1
< 3.70

Value lookup for pIC50; key = COC(=O)[C@H](Cc1ccccc1)NP(=O)(OCCC#N)OCC1OC(n2cc(C)c(=O)[nH]c2=O)CC1N=[N+]=[N-] (stereo partly drawn)
< 3.70

Could you share which pIC50 value was measured for N#CCCN(CCC#N)c1ccc(/C=C2\N=C(c3ccccc3)N(c3ccc(F)cc3)C2=O)cc1 ?
< 3.70

Return reported pIC50; argument: CC1CCCCNC1=S (stereo not drawn)
< 3.70

Need pIC50 of COc1ccc2c(c1)OC(OC)(c1ccc(OC)c(OC)c1)C(O)(OC)C2=O (stereo not drawn) , thanks.
4.95

Given the compound COC(=O)c1nc2c(C)c(O)c(Oc3c(C)c(O)c(O)c([C@H](C)CCC=C(C)C)c3O)c([C@H](C)CCC=C(C)C)c2o1 , what is its reported pIC50?
5.10

I'd like to know its pIC50. The compound in question is CC12C=C3CC(OC(=O)c4ccccc4)CCC3(O1)c1ccccc12 (stereo not drawn)
4.49

Data request, read-out pIC50, for COc1cc2c(cc1OC)C(=O)Cc1ccc(OC)c(OC)c1CN(C)CC2
< 4.17

Requested field: pIC50. Item: N[C@H](C(=O)O)[C@H](Cl)CC(=O)O
< 3.61

Please give the measured pIC50 for this compound: CCOC(=O)c1[nH]c(-c2[nH]c(-c3[nH]c(-c4[nH]c(C(=O)OCC)c(C)c4C(=O)OCC)c(C(=O)OCC)c3C)c(C)c2C(=O)OCC)c(C(=O)OCC)c1C
< 3.70

Any idea what pIC50 was measured for CCN(CC)C(=S)SS(=O)(=O)c1cccc(N)c1 ?
< 3.70
